Attribute: Kd
molecular target: T1, human serum albumin (human, UniProt P02768 25-609); test: SPR, single cycle kinetics, pH 7.4
T1 construct: also called HSA
Report as a plain number; the unit nM is understood.

binder	obs-value
R28 sdAb (VHH, also called R28 VHH) VHH: QVQLVESGGGLVQAGGSLRLSCVASGRTFIAYAMGWFRQAPGKEREFVAAITNFAGGTTYYADSVKGRFTISRDNAKTTVYLQMNSLKPEDTALYYCAADRSAQTMRQVRPVLPYWGQGTQVTVSS	12

Value of measured Kd for the entry Rh34 sdAb (VHH, also called Rh34 VHH) VHH: QVKLEESGGGLVQAGGSLRLSCAASGRTISLYAVGWFRRAPGKEREFVAAISWTDSSTYYADSVKGRFTISRDNAKNTVYLGMNSLNPEDTAVYYCAADVSIRGLQKYEYDYWGQGTQVTVSS : 286

Value of measured Kd for the entry H18 sdAb (VHH, also called H18 VHH) VHH: QVQLVESGGGLVQAGGSLRLSCTASGSIESINRMAWYRQAPGQQREFVARISKGGSTNYPDSVKGRFTISRDNAKNTVYLQMNSLKPEDTAVYYCAAGPVWEQFWGQGTQVTVSS : 34

Value of measured Kd for the entry M79 sdAb (VHH, also called M79 VHH) VHH: QVKLEESGGGLVQAGGSLKLSCAASGSTFSSSSVGWYRQAPGQQRELVAAITSGGSTNTADSVKGRFTMSRDNAKNTVYLQMRDLKPEDTAVYYCNVAGRNWVPISRYSPGPYWGQGTQVTVSS : 122
